// pIC50 lookup, one value per entry
Target: T1, recombinant biotinylated human PAR2 extracellular domain (residues 1-75), N-terminal AviTag, C-terminal Flag … (human, UniProt P55085 26-75, biotin on the AviTag (enzymatic biotinylation))
T1 construct: also called Bio-human-PAR2 ECD; human PAR2 ECD; not shown: N-terminal AviTag (Avidity LLC); C-terminal Flag and poly Histidine tags
T1 sequence (P55085 26-75): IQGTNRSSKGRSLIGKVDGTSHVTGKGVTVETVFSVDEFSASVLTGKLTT
Assay: HTRF competition with Dylight650-Par0067 IgG, pH 7.4, IgG
Lab note — pIC50 values are minus log10 of concentrations in M.

{"binder": "PaB670129 IgG1TM (antibody, V domains shown, IgG1-TM (L234F, L235E, P331S), human lambda light chain; also called ZZ1RUE-F02) VH: EVQLLESGGGLVQPGGSLRLSCAASGFTFSSYAMNWVRQAPGKGLEWVSTISYHGSHISYHDSVHHRFTISRDNSKNTLYLQMNSLRAEDTAVYYCARIHHDPMDVWGQGTLVTVSS VL: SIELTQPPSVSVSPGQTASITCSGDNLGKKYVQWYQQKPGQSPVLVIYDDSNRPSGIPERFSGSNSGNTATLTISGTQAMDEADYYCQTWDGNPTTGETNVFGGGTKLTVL", "endpoint label": "pIC50", "result": 7.25}

The measured pIC50 associated with PaB670153 IgG (antibody, V domains shown, IgG1-TM (L234F, L235E, P331S), human lambda light chain) VH: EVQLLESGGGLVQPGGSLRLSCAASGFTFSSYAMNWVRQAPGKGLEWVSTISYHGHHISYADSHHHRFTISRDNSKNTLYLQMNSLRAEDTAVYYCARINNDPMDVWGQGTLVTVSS VL: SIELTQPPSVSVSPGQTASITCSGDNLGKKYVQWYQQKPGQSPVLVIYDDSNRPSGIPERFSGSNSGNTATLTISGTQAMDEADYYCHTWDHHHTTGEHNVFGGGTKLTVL reads 7.03

Form field pIC50, entry PaB670162 IgG (antibody, V domains shown, IgG1-TM (L234F, L235E, P331S), human lambda light chain) VH: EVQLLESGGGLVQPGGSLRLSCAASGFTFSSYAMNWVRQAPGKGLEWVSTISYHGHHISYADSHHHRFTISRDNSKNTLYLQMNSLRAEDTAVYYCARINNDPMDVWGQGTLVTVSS VL: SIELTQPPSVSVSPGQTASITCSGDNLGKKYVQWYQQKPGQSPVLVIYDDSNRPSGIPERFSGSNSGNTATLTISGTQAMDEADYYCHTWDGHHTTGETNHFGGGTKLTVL : 7.94

meta.source: patent US20180305450A1
